- System: SF-295 CNS
- EXPERIMENT: NCI-60 one-dose screen, 48 h (100 = growth as untreated, 0 = no growth, -100 = all killed)
- REPORTED CONDITIONS: 10 µM unless noted
Compounds without any hit were thinned out: in the full panel of roughly 83,000, 20% have a hit.
Field: label. Allowed values: criterion met (growth < 20%) or criterion not met (growth >= 20%).

Query block: Please state whether growth is below 20% for CN(C)c1nc(NCCNS(=O)(=O)c2ccc(C3=Nc4c(N)nc(N)nc4NC(c4ccc(C(F)(F)F)cc4)C3)cc2)nc(Nc2ccc(F)cc2)n1 (stereo not drawn)
Result block: criterion not met

Query block: Please state whether growth is below 20% for C=C1CC[C@@H]2[C@]3(C)COC(c4cn(-c5ccccc5)nc4-c4ccccc4)O[C@@H]3CC[C@@]2(C)[C@@H]1C/C=C1/C(=O)OC[C@H]1O (stereo partly drawn)
Result block: criterion met

Query block: Please state whether growth is below 20% for CN(C)c1ccnc(NCCCSC(c2ccccc2)(c2ccccc2)c2ccccc2)c1
Result block: criterion met

Query block: Please state whether growth is below 20% for COc1cc2c(c(OC)c1OC)C(=O)CC(c1cccc(NC(=O)c3cccc(NC(=O)[C@H](C)NC(=O)OC(C)(C)C)c3)c1)O2 (stereo partly drawn)
Result block: criterion not met

Query block: Please state whether growth is below 20% for Nc1nc(-c2ccccc2)c(N=Nc2ccc([N+](=O)[O-])cc2Cl)s1
Result block: criterion not met

Query block: Please state whether growth is below 20% for Cn1cc(-c2cc(N)n3nc(-c4cn(C)c5ccc(Cl)cc45)cc3n2)c2ccccc21
Result block: criterion not met

Query block: Please state whether growth is below 20% for CC12CC[C@@H]3[C@]4(C)COC(c5cn[nH]c5-c5ccc(Cl)cc5)O[C@@H]4CC[C@@]3(C)[C@@H]1CC(C1=CCOC1=O)O2 (stereo partly drawn)
Result block: criterion not met

Query block: Please state whether growth is below 20% for O=C1Nc2cc(Cl)ccc2/C1=C/c1cccc(OCc2ccccn2)c1
Result block: criterion met

Every entry's value here was drawn from PubChem BioAssay (NCI).
